Sourced from paper PMC8597757

Assay: Multiple-dose (once weekly for 3 weeks) plasma pharmacokinetics of MK-8507 tablet
Format: in vivo, human
Details: human, plasma, oral, 200 mg, 200 mg tablet once weekly, wk 1, n=5/6; read-out: Cmax (geometric mean [95% CI])
quantity kind: Cmax (µM)

>>> reported_measurement("N#Cc1cc(Cl)cc(Oc2c(C(F)(F)F)ncn(Cc3cc(C(F)(F)F)c(=O)[nH]n3)c2=O)c1")
4.87

###

Assay: Multiple-dose (once weekly for 3 weeks) plasma pharmacokinetics of MK-8507 tablet
Assay type: in vivo, human
Conditions: human, plasma, oral, 200 mg, 200 mg tablet once weekly, wk 3, n=5; read-out: AUC0–168 (geometric mean [95% CI])
Description: MK-8507 in plasma was extracted by protein precipitation and analyzed by reversed-phase chromatographic separation coupled with tandem mass spectrometric detection by Merck & Co., Inc. (West Point, PA, USA). […] The lower limit of quantitation was 1.0 ng/mL (2.03 nM) with a linear calibration range from 1.0 to 1000 ng/mL. […]
quantity kind: AUC(0-t)

>>> reported_measurement("N#Cc1cc(Cl)cc(Oc2c(C(F)(F)F)ncn(Cc3cc(C(F)(F)F)c(=O)[nH]n3)c2=O)c1 [MK-8507]")
"352 µM·h"

###

Assay: Single-dose plasma pharmacokinetics of MK-8507 (suspension, study 1; tablet, study 2)
Type: in vivo
Conditions: human, po, 10 mg, single oral dose 10 mg, suspension, fasted, n=6, read-out: Tmax (median [min, max])
quantity kind: Tmax (h)

>>> reported_measurement("N#Cc1cc(Cl)cc(Oc2c(C(F)(F)F)ncn(Cc3cc(C(F)(F)F)c(=O)[nH]n3)c2=O)c1 [MK-8507]")
2

###

Experiment: Single-dose plasma pharmacokinetics of MK-8507 (suspension, study 1; tablet, study 2)
Format: in vivo
Settings: human, po, 200 mg, single oral dose 200 mg, suspension, fasted, n=6, read-out: Apparent terminal t½ (geometric mean [%GVC]) (converted)
quantity kind: half-life (h)

>>> reported_measurement("N#Cc1cc(Cl)cc(Oc2c(C(F)(F)F)ncn(Cc3cc(C(F)(F)F)c(=O)[nH]n3)c2=O)c1 [MK-8507]")
83.5

###

Assay: Single-dose plasma pharmacokinetics of MK-8507 (suspension, study 1; tablet, study 2)
Assay type: in vivo
Settings: human, po, 200 mg, single oral dose 200 mg, suspension, fasted, n=6, read-out: AUC0-∞ (geometric mean [95% CI])
quantity kind: AUC(0-inf) (µM·h)

>>> reported_measurement("N#Cc1cc(Cl)cc(Oc2c(C(F)(F)F)ncn(Cc3cc(C(F)(F)F)c(=O)[nH]n3)c2=O)c1")
374

###

Assay: Single-dose plasma pharmacokinetics of MK-8507 (suspension, study 1; tablet, study 2)
Assay type: in vivo
Settings: human, po, 10 mg, single oral dose 10 mg, suspension, fasted, n=6, read-out: Cmax (geometric mean [95% CI])
quantity kind: Cmax (nM)

>>> reported_measurement("N#Cc1cc(Cl)cc(Oc2c(C(F)(F)F)ncn(Cc3cc(C(F)(F)F)c(=O)[nH]n3)c2=O)c1")
220

###

Assay: Single-dose plasma pharmacokinetics of MK-8507 (suspension, study 1; tablet, study 2)
Format: in vivo
Details: human, po, 2 mg, single oral dose 2 mg, suspension, fasted, n=6, read-out: C168hr (geometric mean [95% CI])
quantity kind: concentration at 168 h (nM)

>>> reported_measurement("N#Cc1cc(Cl)cc(Oc2c(C(F)(F)F)ncn(Cc3cc(C(F)(F)F)c(=O)[nH]n3)c2=O)c1")
10
